Source listed as patent US20190144499A1.

For each entry below, report its half-life value.
Assay: Pharmacokinetics assay in rats after intravenous administration
Format: in vivo
Details: both sexes, Sprague-Dawley, rat, plasma, SD rats, 1 mg/kg, read-out: Half-Life t1/2 (converted)
Protocol: Rats were used as test animals. The drug concentration in plasma at different time points was determined by LC/MS/MS after intravenous administration of the compounds of Examples 2, 5 and 8 to the rats. The pharmacokinetic behavior of the compounds of the present invention was studied and evaluated in SD rats. […] The concentration of the test compounds in SD rat plasma after intravenous administration was determined by LC-MS/MS.
Where a SMILES comes first, the peptide text is derived from it. [ ]: non-standard residue; d: D form. The star is where a group is joined. Piperidin1yl(4-NH2,4-COOH) = NC1(C(=O)O)CCN(*)CC1; Gly(NCH2CH2Ph) = O=C(O)CNCCc1ccccc1
Quick note: give the figure in min, leave out the unit.

In: Which half-life is reported for this molecule? CC(C)C[C@@H](NC(=O)[C@@H](Cc1ccccc1)NC(=O)CNC[C@H](C)c1ccccc1)C(=O)N[C@H](CCCCN)C(=O)N1CCC(N)(C(=O)O)CC1
Out: 28.1

In: Which half-life is reported for this molecule? CC(C)C[C@@H](NC(=O)[C@@H](Cc1ccccc1)NC(=O)CNCCc1ccccc1)C(=O)N[C@H](CCCCN)C(=O)N1CCC(N)(C(=O)O)CC1 [Example 8] (H-[Gly(NCH2CH2Ph)][dF][dL][dK]-{Piperidin1yl(4-NH2,4-COOH)})
Out: 30.1

In: Which half-life is reported for this molecule? CC(C)C[C@@H](NC(=O)[C@@H](Cc1ccccc1)NC(=O)CNC[C@@H](C)c1ccccc1)C(=O)N[C@H](CCCCN)C(=O)N1CCC(N)(C(=O)O)CC1
Out: 29.3
